- Test method notes: logP by HPLC on reversed phase columns (EEC directive 79/831 Annex V.A8)
- Condition summary: method [a]: LC-MS at pH 2.7, 0.1% formic acid in water / acetonitrile gradient 10% to 95%
Measurement label: logP

Take a look at these entries with their results.
>>> df
                                   molecule  measurement_label  endpoint_result
0  CON=Cc1ccc(-c2ccccc2NC(=O)c2c(C(F)F)nn(C)c2Cl)cc1F [Example 33]               logP          3.75[a]
1  CON=C(C)c1cccc(-c2cccc(NC(=O)c3c(C(F)F)nn(C)c3Cl)c2)c1 [Example 45]               logP          4.04[a]
2  CCON=C(C)c1cccc(-c2cccc(NC(=O)c3c(C(F)F)nn(C)c3F)c2)c1 [Example 44]               logP          4.29[a]

Now let's try a different one.
Lab note: measured logP of C#CCON=C(C)c1ccc(-c2ccccc2NC(=O)c2c(C(F)F)nn(C)c2F)cc1 [Example 12] was 3.8[a]
